Property: MIC; scope: individual compounds
Test system: Staphylococcus aureus
Assay: Antibacterial activity against methicillin-resistant Staphylococcus aureus N315 measured by Muller-Hinton broth based microdilution assay
Assay type: functional
Report as: number unit

Worked cases, answers included:
# COMPOUND, RESULT
records = [
    ("O=C1c2cccc3c(N/N=C/c4c[nH]c5ccccc45)ccc(c23)C(=O)N1C(CO)CO", "4 mg/L"),
    ("Cc1ccc(/C=N/Nc2ccc3c4c(cccc24)C(=O)N(C(CO)CO)C3=O)cc1", "16 mg/L"),
    ("O=C1c2cccc3c(N/N=C/c4ccc(O)c(Br)c4)ccc(c23)C(=O)N1C(CO)CO", "8 mg/L"),
]

INPUT: Item O=C1c2cccc3c(N/N=C/c4ccc(Cl)cc4)ccc(c23)C(=O)N1C(CO)CO has what recorded MIC?
OUTPUT: 16 mg/L
